PROTOCOL SUMMARY: enhancers of RGS4 function in calcium signaling – cell-based, HEK293 M3R inducible RGS4, calcium flux, primary screen (AID 463111)
STUDY CONDITIONS: HEK293 M3R/inducible RGS4, carbachol calcium flux Fluo4, at 10 µM
The whole screen tested about 310,000 compounds, of which about 2,800 (0.9%) were called active.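 Rule for the calls: active = B-score of the integrated calcium signal more than 4 SD below the library mean, with starting fluorescence not abnormally high; inactive = the rest.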 The sample as a whole holds a higher share of actives than the screen did.
Classes used: active, inactive

INSERT INTO assay_data (compound, category) VALUES
  ('Cc1ccc(NC(=O)c2oc3ccccc3c2C)c([N+](=O)[O-])c1', 'inactive'),
  ('OCCC1CN(Cc2ccc3nsnc3c2)CCN1C1CCCCC1 (stereo not given)', 'inactive'),
  ('Cc1cc(C)cc(NS(=O)(=O)c2ccc(F)cc2)c1', 'inactive'),
  ('Cc1cc(C)cc(NS(=O)(=O)c2ccc(Oc3ncc(C(F)(F)F)cc3Cl)cc2)c1', 'active'),
  ('COc1ccccc1Oc1ccc(S(=O)(=O)Nc2cccnc2)cc1', 'inactive');
